- Assay System: FGFR3 (UniProt P22607)
- Sequence (P22607 whole entry, looked up): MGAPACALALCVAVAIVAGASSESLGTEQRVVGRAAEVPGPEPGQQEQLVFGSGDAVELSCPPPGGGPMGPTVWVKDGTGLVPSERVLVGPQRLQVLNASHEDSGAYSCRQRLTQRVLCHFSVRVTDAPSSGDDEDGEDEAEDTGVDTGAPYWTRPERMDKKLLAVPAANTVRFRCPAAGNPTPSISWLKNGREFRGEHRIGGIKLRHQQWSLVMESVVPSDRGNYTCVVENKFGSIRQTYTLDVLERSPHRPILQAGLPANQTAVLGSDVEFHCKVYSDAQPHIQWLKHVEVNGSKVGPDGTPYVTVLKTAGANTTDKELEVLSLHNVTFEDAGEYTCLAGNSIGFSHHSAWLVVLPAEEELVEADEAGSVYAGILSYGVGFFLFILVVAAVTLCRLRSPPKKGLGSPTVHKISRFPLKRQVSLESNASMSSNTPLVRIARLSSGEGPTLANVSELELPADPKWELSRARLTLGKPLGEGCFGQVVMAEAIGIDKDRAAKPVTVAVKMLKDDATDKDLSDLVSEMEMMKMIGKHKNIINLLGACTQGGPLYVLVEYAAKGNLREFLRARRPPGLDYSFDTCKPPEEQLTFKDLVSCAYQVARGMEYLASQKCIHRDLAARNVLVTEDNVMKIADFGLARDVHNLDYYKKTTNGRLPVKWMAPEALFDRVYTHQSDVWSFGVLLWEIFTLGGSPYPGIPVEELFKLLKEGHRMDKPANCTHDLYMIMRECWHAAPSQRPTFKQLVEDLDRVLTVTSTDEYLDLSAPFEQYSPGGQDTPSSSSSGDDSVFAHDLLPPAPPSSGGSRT
- Method Summary: phosphorylation enrichment, bacterial display (enrichment ratio); higher = better substrate or ligand; peptides without Tyr show the background;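 also: 11-residue human phosphosite peptides and single-mutation variants displayed on the E. coli surface, counted by deep sequencing, each peptide's frequency after selection divided by its frequency in the unselected input library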;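 also: frequency after pTyr selection over input frequency; kinase dosed for 20-30% of maximal phosphorylation in three min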
The sequences listed here are annotated with their phosphorylation enrichment.

Some sequences with known phosphorylation enrichment results, for comparison:
- Residues: "RAILLYEYVGK [NATD1_Y45_V42I]"
  Reported: 5.74
- Residues: "SVTCTYSPAVN [TP53_Y126_L130V]"
  Reported: 0.945
- Residues: "VGGRIYIDDAL [PKLR_Y218_G222A]"
  Reported: 0.612
- Residues: "TPTFPYLLPKS [PLD2_Y580_YF]"
  Reported: 0.406
- Residues: "RENGPYFTSFP [GDAP2_Y487_YF]"
  Reported: 0.825
- Residues: "ALIKAYDKAVA [SMN1_Y43]"
  Reported: 0.526
- Residues: "IQKWEYVPLGT [FAH_Y244_P249T]"
  Reported: 0.723
- Residues: "QADIIYVNTQL [MERTK_Y872_V870I]"
  Reported: 0.84
- Residues: "TVSSDYLHPQF [CCPG1_Y569_F566S_YF]"
  Reported: 0.753
- Residues: "AKAFIYASHIV [ZNF573_Y229_G224A]"
  Reported: 0.965

Complete the entry with phosphorylation enrichment for EEGESDVCSSD [DCX_Y125_Y125D]
0.544

Complete the entry with phosphorylation enrichment for PTDSVYVMPTV [MYO7A_Y1668]
1.68

Complete the entry with phosphorylation enrichment for ELTAKYLNFFQ [P3H4_Y181_YF]
0.681

Complete the entry with phosphorylation enrichment for KKKKQYKGKFL [CASK_Y708_D710G_YF]
0.579

Complete the entry with phosphorylation enrichment for VNTMLYEKFTF [TEK_Y1108_T1106M_YF]
0.697

Complete the entry with phosphorylation enrichment for DQIDTYELSGG [DNM1_Y354]
0.695

Complete the entry with phosphorylation enrichment for RLRAAYNLVKR [PFKM_Y103]
1.01

Complete the entry with phosphorylation enrichment for LVMFIYAISGM [SCN1A_Y1684_F1687S]
1.01

Complete the entry with phosphorylation enrichment for HNGVSYYINLC [IGF2R_Y2024]
1.1

Complete the entry with phosphorylation enrichment for SHNELYYEAAE [VANGL1_Y344_E347A]
2.54

Complete the entry with phosphorylation enrichment for YRRITYYNWRH [PDE6B_Y556_H557Y]
0.598

Complete the entry with phosphorylation enrichment for PGGNIYISPLK [RB1_Y805]
0.526
